# maps each entry to its pEC50
Tested on: Hepatitis C virus
ASSAY TEXT: Antiviral activity against HCV1b Con1 harboring NS3 protease gene infected in human Huh7/Lunet cells assessed as inhibition of viral replication after 3 days by luciferase based transient-transfection assay
Assay type: functional, organism-based, Hepacivirus hominis
CONDITION INFO: Con1, Huh-7, 72 h
pEC50: −log10 of the molar value.

COMPOUND | pEC50
CC[C@@H]1C[C@]1(NC(=O)[C@@H]1C[C@@H]2CN1C(=O)[C@H](C(C)(C)C)NC(=O)OCC(C)(C)CCCCc1cccc3c1CN(C3)C(=O)O2)C(=O)NS(=O)(=O)C1CC1 | 9.15
COc1ccc2c(O[C@@H]3C[C@H]4C(=O)N[C@]5(C(=O)NS(=O)(=O)C6CC6)C[C@H]5/C=C\CCCCN(C)C(=O)[C@@H]4C3)cc(-c3nc(C(C)C)cs3)nc2c1C | 8.48
CCCCCOc1ccc(NC(=S)NC(=O)c2cccnc2)cc1C(F)(F)F | 7.55
CC(C)(C)NC(=O)N[C@H](C(=O)N1C[C@H]2[C@@H]([C@H]1C(=O)NC(CC1CCC1)C(=O)C(N)=O)C2(C)C)C(C)(C)C (stereo partly specified) | 6.56
CCC[C@H](NC(=O)[C@@H]1[C@H]2CCC[C@H]2CN1C(=O)[C@@H](NC(=O)[C@@H](NC(=O)c1cnccn1)C1CCCCC1)C(C)(C)C)C(=O)C(=O)NC1CC1 | 6.42
CC(C)(C)OC(=O)N[C@H]1CCCCC/C=C\[C@@H]2C[C@@]2(C(=O)NS(=O)(=O)C2CC2)NC(=O)[C@@H]2C[C@@H](OC(=O)N3Cc4cccc(F)c4C3)CN2C1=O | 9.22

* * *

# maps each entry to its pEC50
Tested on: Hepatitis C virus
ASSAY TEXT: Antiviral activity against HCV1b harboring Q80Q polymorphism in NS3 protease gene infected in human Huh7/Lunet cells assessed as inhibition of viral replication after 3 days by luciferase based transient-transfection assay
Format: functional, organism-based, Hepacivirus hominis
CONDITION INFO: genotype 1b, Huh-7, 72 h
pEC50: −log10 of the molar value.

COMPOUND | pEC50
CC(C)(C)NC(=O)N[C@H](C(=O)N1C[C@H]2[C@@H]([C@H]1C(=O)NC(CC1CCC1)C(=O)C(N)=O)C2(C)C)C(C)(C)C (stereo not given in full) | 6.70
COc1ccc2c(O[C@@H]3C[C@H]4C(=O)N[C@]5(C(=O)NS(=O)(=O)C6CC6)C[C@H]5/C=C\CCCCN(C)C(=O)[C@@H]4C3)cc(-c3nc(C(C)C)cs3)nc2c1C | 8.57
CC(C)(C)OC(=O)N[C@H]1CCCCC/C=C\[C@@H]2C[C@@]2(C(=O)NS(=O)(=O)C2CC2)NC(=O)[C@@H]2C[C@@H](OC(=O)N3Cc4cccc(F)c4C3)CN2C1=O | 9.60
CC[C@@H]1C[C@]1(NC(=O)[C@@H]1C[C@@H]2CN1C(=O)[C@H](C(C)(C)C)NC(=O)OCC(C)(C)CCCCc1cccc3c1CN(C3)C(=O)O2)C(=O)NS(=O)(=O)C1CC1 | 9.57
CCC[C@H](NC(=O)[C@@H]1[C@H]2CCC[C@H]2CN1C(=O)[C@@H](NC(=O)[C@@H](NC(=O)c1cnccn1)C1CCCCC1)C(C)(C)C)C(=O)C(=O)NC1CC1 | 6.75
